Hey, just so you know, these numbers are from paper PMC3252880.

- Tested on: chloroquine-resistant (CQR) strain of P. falciparum (Dd2)
- Protocol description: in vitro antiplasmodial activity, chloroquine-resistant strain Dd2
- Assay type: cell-based, Plasmodium falciparum
- Run parameters: Plasmodium falciparum, DD2, read-out: Dd2: IC50
Please respond with reported IC50 for every item in the list.
Reply numerically in µM, unit not repeated.

Param item = Cc1ccc(-c2cn(CC3CN3Cc3ccccc3)nn2)cc1 (centres unmarked) [Compound 15d] ; retrieve measured IC50.
21

Param item = COc1ccc(CN2CC2Cn2cc(-c3ccccc3)nn2)cc1 (centres unmarked) [Compound 15c] ; retrieve measured IC50.
55.6

Param item = c1ccc(CN2CC2Cn2cc(-c3ccccc3)nn2)cc1 (centres unmarked) [Compound 15a] ; retrieve measured IC50.
107

Param item = [N-]=[N+]=NCC1CN1Cc1ccccc1 (centres unmarked) [Compound 14a, 2-Azidomethyl-1-(phenylmethyl)aziridine] ; retrieve measured IC50.
467
